Molecular target: human ERα (Homo sapiens)
Sequence (P03372 311-547 limits assumed): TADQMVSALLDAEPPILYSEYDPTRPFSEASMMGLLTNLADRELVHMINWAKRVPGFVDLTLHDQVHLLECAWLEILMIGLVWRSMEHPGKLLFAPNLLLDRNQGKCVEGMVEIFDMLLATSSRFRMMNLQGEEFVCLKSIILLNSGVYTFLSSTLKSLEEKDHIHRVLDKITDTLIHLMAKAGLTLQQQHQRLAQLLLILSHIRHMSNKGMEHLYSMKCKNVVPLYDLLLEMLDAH
Assay: Competition with [3H]-17β-estradiol for binding to ERα ligand binding domain (E. coli lysate)
Conditions: 2 nM [3H]-17β-estradiol, 5-15 hours at room temperature; concentration that decreases total 17β-estradiol binding by 50%
measured metric: pIC50
Please note pIC50 is a logarithmic value: minus log10 of concentration in mol/L. Answer with that number alone.

Returns the measured pIC50 for the input molecule. Input: ON=Cc1cc(-c2ccc(O)cc2)cc2ccoc12
5.49

----------
Catalogue of melting point readings, one per entry.

Here are 6 compounds together with their reported answers.
Returns the measured melting point for the input compound. Input: ON=Cc1ccc(-c2ccc(O)cc2)c2sccc12 [Example 19]
230 to 231 °C

Request: ON=Cc1ccc(-c2ccc(O)cc2)c2ccccc12 [Example 3]
200 to 200.5 °C

Request: ON=Cc1cc(-c2ccc(O)cc2)c2occc2c1 [Example 43]
192 to 194 °C

Request: ON=Cc1ccc(-c2ccc(O)cc2)c2occc12 [Example 25]
216 to 217 °C

Request: ON=Cc1ccc(-c2ccc(O)c(F)c2)c2ccccc12 [Example 6]
187 to 188 °C

Request: ON=Cc1ccc(-c2ccc(O)cc2)c2ccoc12 [Example 31]
219 to 220 °C

Query compound follows.
Returns the measured melting point for the input compound. Input: ON=Cc1ccc(-c2ccc(O)cc2)c2ccsc12 [Example 12]
229.5 to 230.5 °C

----------
Molecular target: human ERβ (Homo sapiens, UniProt Q92731)
Sequence (Q92731 264-498 limits assumed): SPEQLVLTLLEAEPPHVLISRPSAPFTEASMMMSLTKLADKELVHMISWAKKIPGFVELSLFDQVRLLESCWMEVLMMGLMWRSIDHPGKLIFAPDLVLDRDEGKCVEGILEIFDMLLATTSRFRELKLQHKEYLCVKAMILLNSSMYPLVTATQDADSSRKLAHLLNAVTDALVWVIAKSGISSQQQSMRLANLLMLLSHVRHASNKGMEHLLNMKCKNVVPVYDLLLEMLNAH
Experiment: Competition with [3H]-17β-estradiol for binding to ERβ ligand binding domain (E. coli lysate)
Conditions: 2 nM [3H]-17β-estradiol, 5-15 hours at room temperature; concentration that decreases total 17β-estradiol binding by 50%
pIC50: −log10 of the molar value.
measured metric: pIC50

1. ON=Cc1cc(-c2ccc(O)cc2)c2occc2c1
2. ON=Cc1cc(-c2ccc(O)cc2)cc2ccoc12
Between 1 and 2 , which one shows the smaller pIC50 number? Answer with the label corresponding to your selection.
1
(1: 5.66, 2: 6.49)

The reported measurements were obtained from patent US7157491B2.
